Every entry's value here was drawn from patent US20230099344A1.

pIC50 values for the compounds below.
test system: IL6; assay: R848 stimulated IL6 inhibition assay in PBMC; assay type: cell-based; conditions: PBMC; human PBMCs, R848 stimulation, compound overnight, IL6 by MSD after 24 hrs; read-out: R848 stim IL6 inhibition IC50
pIC50: −log10 of the molar value.

Here are 4 compounds together with their reported answers.
>  <compound>
O=C1CCC(N2C(=O)c3ccc(N4CCCC5(CN(CCN6CCC(n7cc8cc(NC(=O)c9cnn%10cccnc9%10)c(OCC9CC9)cc8n7)CC6)C5)C4)cc3C2=O)C(=O)N1 (centres unmarked)

>  <measurementTarget>
IL6

>  <endpointResult>
7.30 to 8.00

$$$$
>  <compound>
CC(C)Oc1cc2c(cc1NC(=O)c1cnn3cccnc13)CN([C@H]1CC[C@H](N3CC4(CN(c5ccc6c(c5)C(=O)N(C5CCC(=O)NC5=O)C6=O)C4)C3)CC1)C2=O (some centres unmarked)

>  <measurementTarget>
IL6

>  <endpointResult>
> 8.00

$$$$
>  <compound>
CC(C)Oc1cc2c(cc1NC(=O)c1cnn3cccnc13)CN(C1CCN(CC3(F)CN(c4cc(F)c5c(c4)C(=O)N(C4CCC(=O)NC4=O)C5)C3)CC1)C2=O (centres unmarked)

>  <measurementTarget>
IL6

>  <endpointResult>
7.30 to 8.00

$$$$
>  <compound>
CN(C1CCN(c2ccc3c(c2)C(=O)N(C2CCC(=O)NC2=O)C3=O)CC1)[C@H]1CC[C@H](n2cc3cc(NC(=O)c4cnn5cccnc45)c(OCC(F)F)cc3n2)CC1 (some centres unmarked)

>  <measurementTarget>
IL6

>  <endpointResult>
> 8.00

$$$$

# pIC50 lookup, item O=C1CCC(N2C(=O)c3ccc(N4CC(F)(CN5CCC(n6cc7cc(NC(=O)c8cnn9cccnc89)c(N8CCOCC8)cc7n6)CC5)C4)cc3C2=O)C(=O)N1 (centres unmarked) > 8.00
